The measurements presented in this section are drawn from ChEMBL document CHEMBL1131108.

target: Trypanothione reductase (Trypanosoma cruzi, UniProt P28593); assay: Inhibitory activity against recombinant Trypanosoma cruzi (Trypanosoma cruzi) Trypanothione reductase; conditions: read-out: I50
Sequence (P28593 whole entry): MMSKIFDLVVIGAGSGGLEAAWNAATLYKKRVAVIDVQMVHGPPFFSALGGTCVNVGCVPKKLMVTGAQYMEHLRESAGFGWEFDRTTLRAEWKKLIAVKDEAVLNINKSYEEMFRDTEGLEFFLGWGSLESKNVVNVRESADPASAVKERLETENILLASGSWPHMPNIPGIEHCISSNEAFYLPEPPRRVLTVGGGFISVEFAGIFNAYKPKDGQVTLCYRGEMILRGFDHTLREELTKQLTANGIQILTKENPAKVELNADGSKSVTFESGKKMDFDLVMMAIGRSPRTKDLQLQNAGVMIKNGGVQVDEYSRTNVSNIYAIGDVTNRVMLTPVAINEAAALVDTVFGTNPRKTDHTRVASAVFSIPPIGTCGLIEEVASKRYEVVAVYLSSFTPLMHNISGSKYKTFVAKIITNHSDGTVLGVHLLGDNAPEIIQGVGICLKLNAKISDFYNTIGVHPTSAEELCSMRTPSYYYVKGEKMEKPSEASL
resultType: log10(IC50) (log10 of the value in µM)
On a log10 scale: recorded IC50, unit µM.

Reference set, count: 4
## Task Returns the measured log10(IC50) for the input compound. Input: `CCC(=O)c1ccc2c(c1)N(CCCN(C)C)c1ccccc1S2`
## Result 2.55

## Task Dear colleague, I am looking for the recorded log10(IC50) of the following compound: `CCN(CC)CCC(=O)N1c2ccccc2Sc2ccc(Cl)cc21`
## Result 2.90

## Task State the recorded log10(IC50) for this entry: `CC(=O)c1ccc2c(c1)N(CCCN(C)C)c1cc(Cl)ccc1S2`
## Result 2.24

## Task For the compound `O=C(CNc1ccccc1)N1c2ccccc2Sc2ccc(Cl)cc21` , what log10(IC50) is on record?
## Result 2.41

For every record below, what is its log10(IC50)?
1. O=C(O)CCC(=O)N1c2ccccc2Sc2ccc(Cl)cc21
2. CCN(CC)CCN1c2ccccc2Sc2ccc(Cl)cc21
3. O=C(CCl)N1c2ccccc2Sc2ccc(Cl)cc21
4. CN(C)CCCN1c2ccccc2Sc2ccc(CN)cc21

## Result
1: 3.17; 2: 1.91; 3: 2.94; 4: 2.34

Provide log10(IC50) values for the following items, in order.
1. O=C(CCC(=O)N1c2ccccc2Sc2ccc(Cl)cc21)NCc1ccccc1
2. CCN(CC)CC(=O)N1c2ccccc2Sc2ccc(Cl)cc21
3. CN(C)CCCN1c2ccccc2Sc2ccc(Cl)cc21

## Result
[2.27, 2.92, 1.55]

* * *

target: Trypanothione reductase (Trypanosoma cruzi, UniProt P28593); assay: Inhibitory activity against recombinant Trypanosoma cruzi (Trypanosoma cruzi) Trypanothione reductase; settings: read-out: I50
I'd be grateful if you could share measured IC50 for these entries.
Give bare numbers, in µM.

Consider the worked cases shown below.
## Task What does the data say about its IC50? Entry: `O=C(CCC(=O)N1c2ccccc2Sc2ccc(Cl)cc21)NNc1ccccc1`
## Result 151

## Task Which IC50 is reported for this compound? `CNCCCN1c2ccccc2Sc2ccc(Cl)cc21`
## Result 126

## Task Which IC50 value belongs to `N=C(N)CCN1c2ccccc2Sc2ccccc21` ?
## Result 992

## Task Item CC(CN1c2ccccc2Sc2ccccc21)N(C)C (stereo unspecified) has what recorded IC50?
## Result 271

## Task I'd like to know its IC50. The compound in question is `CN(C)CCCN1c2ccccc2Sc2c(Cl)cccc21`
## Result 765

// next entry
## Task # input compound: `CN(C)CCCN1c2ccccc2Sc2ccc(C(N)=O)cc21` ; wanted: its IC50
## Result 458

* * *

biological target: UniProtKB P28593; assay: Inhibitory activity against recombinant Trypanosoma cruzi (Trypanosoma cruzi) Trypanothione reductase (linear competitive type)
resultType: pKi
Numbers only, as −log10 of the molar value.

Some compounds with recorded pKi:
## Task So what does the record say about pKi for `OCCN1CCN(CCCN2c3ccccc3Sc3ccc(C(F)(F)F)cc32)CC1` ?
## Result 4.67

## Task Consider the compound `CN1CCN(CCCN2c3ccccc3Sc3ccc(C(F)(F)F)cc32)CC1` and give its measured pKi.
## Result 4.64

Proceeding to the next compound to report its pKi.
## Task What value of pKi has been reported for the following compound? CC(CN(C)C)CN1c2ccccc2Sc2ccccc21 (stereo not drawn)
## Result 3.90
